The reader will find reported trypsin binding signal (FU) values listed item by item below.
- measuredTarget: trypsin
- assayProcedure: monoclonal phage TRF ELISA

binder	trypsin binding signal (FU)
KB_A05 (scFv, V domains shown) VH: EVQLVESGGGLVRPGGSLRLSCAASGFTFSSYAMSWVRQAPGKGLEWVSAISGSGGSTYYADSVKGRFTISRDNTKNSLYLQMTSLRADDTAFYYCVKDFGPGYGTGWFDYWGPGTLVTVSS VL: AVNWYQQLPGKAPKLLIYAADKCPRILMRCKQDSDCLAGCVCGPNGFCGGGSGIPERFSGSKSGTSASLAISGLRSEDEADYYCATWDDNLNGVVFGGGTKLTVLG	121000
KB_C09 (scFv, V domains shown) VH: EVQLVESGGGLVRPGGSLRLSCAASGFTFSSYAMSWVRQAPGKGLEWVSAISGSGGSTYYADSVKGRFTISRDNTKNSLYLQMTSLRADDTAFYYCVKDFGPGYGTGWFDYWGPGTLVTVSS VL: AVNWYQQLPGKAPKLLIYAAGRCPRILMRCKQDSDCLAGCVCGPNGFCGGGSGVPDRFSGSIDSSSNSASLTISGLRAEDEADYYCQSYDSSNHWVFGGGTKLTVLG	89400
KB_B02 (scFv, V domains shown) VH: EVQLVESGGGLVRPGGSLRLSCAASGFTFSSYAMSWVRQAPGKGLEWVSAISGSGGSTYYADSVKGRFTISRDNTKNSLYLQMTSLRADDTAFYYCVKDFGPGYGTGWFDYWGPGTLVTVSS VL: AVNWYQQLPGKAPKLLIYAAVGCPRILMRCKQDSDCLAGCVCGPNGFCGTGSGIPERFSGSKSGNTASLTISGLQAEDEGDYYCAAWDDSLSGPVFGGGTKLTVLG	116000
KB_A09 (scFv, V domains shown) VH: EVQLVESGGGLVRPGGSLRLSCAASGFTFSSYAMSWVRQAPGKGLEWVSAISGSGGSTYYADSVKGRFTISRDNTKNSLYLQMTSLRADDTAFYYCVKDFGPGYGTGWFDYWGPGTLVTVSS VL: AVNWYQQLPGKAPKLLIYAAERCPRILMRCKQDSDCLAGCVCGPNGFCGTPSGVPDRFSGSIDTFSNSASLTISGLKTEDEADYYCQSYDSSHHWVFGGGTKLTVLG	57700
KB_A06 (scFv, V domains shown) VH: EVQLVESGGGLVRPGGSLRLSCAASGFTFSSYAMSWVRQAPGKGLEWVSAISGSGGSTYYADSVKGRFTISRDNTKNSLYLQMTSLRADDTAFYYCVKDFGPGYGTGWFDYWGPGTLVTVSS VL: AVNWYQQLPGKAPKLLIYAAVRCPRILMRCKQDSDCLAGCVCGPNGFCGTPSGIPERFSGSIDRSTNSASLTISGLKTEDEADYYCQSYDSSNLNWVFGGGTKLTVLG	24400

// data source = patent US20260043020A1
